# Tested on: Eimeria tenella
# ASSAY SUMMARY: Screening against Eimeria tenella cell cultures in vitro (chick kidney cells)
# Type: cell-based
# ASSAY SETUP: Dose 10^−5 g/ml; day 5 post infection
PROPERTY MEASURED: Effectiveness rating against Eimeria tenella

Which Effectiveness rating against Eimeria tenella value is on record for CCCNC1OC2OC3(C)CCC4C(C)CCC(C1C)C24OO3 (centres unmarked) ?
2 (2 = active 1-6 parasites per well)

Which Effectiveness rating against Eimeria tenella value is on record for CC1CCC2C(C)C(Nc3ccc(Br)cc3)OC3OC4(C)CCC1C32OO4 (centres unmarked) ?
T

Which Effectiveness rating against Eimeria tenella value is on record for CC(NC1OC2OC3(C)CCC4C(C)CCC(C1C)C24OO3)c1ccccc1 (centres unmarked) ?
T

Which Effectiveness rating against Eimeria tenella value is on record for CC1CCC2C(C)C(Nc3ccc(I)cc3)OC3OC4(C)CCC1C32OO4 (centres unmarked) ?
T

Now turn to the next molecule.
Which Effectiveness rating against Eimeria tenella value is on record for CC1CCC2C(C)C(N3CCOCC3)OC3OC4(C)CCC1C32OO4 (centres unmarked) ?
2 (2 = active 1-6 parasites per well)
